biological target: HLA-B*51:01; assay: IEDB peptide-MHC binding, purified MHC/competitive/radioactivity; filed as Kd, often an IC50 or EC50 that approximates it; bounds were set here for any values at or beyond the usual limits of such assays; conditions: source organism: human papillomavirus 11
Recorded Kd by entry
Report the value in µM with no unit label.

>>> value_measured("SPISNVANA")
5.5

Proceed to the following item.
Prompt: For QPKKVKRRL , what is its reported Kd?
Completion: 3.23

* * *

target: HLA-B*07:02; assay: IEDB peptide-MHC binding, purified MHC/competitive/radioactivity; bounds were set here for any values at or beyond the usual limits of such assays; conditions: source organism: human papillomavirus 18
measured-metric: IC50 (nM)
Report the value in nM with no unit label.

Prompt: Param readout= IC50; system= HLA-B*07:02; entry= SPLGERLEV ; returns value.
Completion: 42
